measurement-type: IC50

GET IC50 | system: LCK (Homo sapiens, UniProt P06239) | item: Cc1ccc(N(C)C(=O)/C=C/CN(C)C2CC2)cc1-n1c(=O)n(-c2ccc(Oc3ccccc3)cc2)c2c(N)ncnc21
> 10 µM

Print LCK (Homo sapiens, UniProt P06239) IC50 for COc1ccc(-n2c(=O)n(-c3ccc(Oc4cccc(F)c4)cc3)c3c(N)ncnc32)cc1N(C)C(=O)/C=C/CN(C)C1CC1 .
> 10 µM

Quote IC50 with test system LCK (Homo sapiens, UniProt P06239) for CN(C(=O)/C=C/CN(C)C1CC1)c1ccc(-n2c(=O)n(-c3ccc(Oc4ccccc4)cc3)c3c(N)ncnc32)cc1
0.1 to 1 µM

Please tell me the measured IC50 for CN(C)C/C=C/C(=O)N(C)c1cccc(-n2c(=O)n(-c3ccc(Oc4ccccc4)cc3)c3c(N)ncnc32)c1 ; system: LCK (Homo sapiens, UniProt P06239).
Sequence (P06239 whole entry, species assumed): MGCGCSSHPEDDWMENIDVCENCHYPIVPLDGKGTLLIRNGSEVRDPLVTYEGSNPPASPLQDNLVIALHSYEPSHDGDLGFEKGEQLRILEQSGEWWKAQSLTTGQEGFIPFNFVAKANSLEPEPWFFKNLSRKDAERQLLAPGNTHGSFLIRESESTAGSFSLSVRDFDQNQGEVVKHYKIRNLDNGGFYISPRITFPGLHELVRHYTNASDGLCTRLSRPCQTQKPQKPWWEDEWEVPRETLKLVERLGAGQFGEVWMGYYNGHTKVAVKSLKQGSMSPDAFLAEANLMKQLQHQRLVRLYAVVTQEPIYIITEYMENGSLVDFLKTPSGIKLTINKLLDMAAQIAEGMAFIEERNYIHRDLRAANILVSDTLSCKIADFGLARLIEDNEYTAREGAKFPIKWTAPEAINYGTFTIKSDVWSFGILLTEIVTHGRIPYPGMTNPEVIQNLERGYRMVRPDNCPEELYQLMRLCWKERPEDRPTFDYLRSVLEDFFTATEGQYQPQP
1 to 10 µM

====

measurement-type: IC50

# return IC50 for CN(C(=O)/C=C/CN)c1cccc(-n2c(=O)n(-c3ccc(Oc4ccccc4)cc3)c3c(N)ncnc32)c1 , test system: BTK (Homo sapiens, UniProt Q06187)
# Sequence (Q06187 whole entry): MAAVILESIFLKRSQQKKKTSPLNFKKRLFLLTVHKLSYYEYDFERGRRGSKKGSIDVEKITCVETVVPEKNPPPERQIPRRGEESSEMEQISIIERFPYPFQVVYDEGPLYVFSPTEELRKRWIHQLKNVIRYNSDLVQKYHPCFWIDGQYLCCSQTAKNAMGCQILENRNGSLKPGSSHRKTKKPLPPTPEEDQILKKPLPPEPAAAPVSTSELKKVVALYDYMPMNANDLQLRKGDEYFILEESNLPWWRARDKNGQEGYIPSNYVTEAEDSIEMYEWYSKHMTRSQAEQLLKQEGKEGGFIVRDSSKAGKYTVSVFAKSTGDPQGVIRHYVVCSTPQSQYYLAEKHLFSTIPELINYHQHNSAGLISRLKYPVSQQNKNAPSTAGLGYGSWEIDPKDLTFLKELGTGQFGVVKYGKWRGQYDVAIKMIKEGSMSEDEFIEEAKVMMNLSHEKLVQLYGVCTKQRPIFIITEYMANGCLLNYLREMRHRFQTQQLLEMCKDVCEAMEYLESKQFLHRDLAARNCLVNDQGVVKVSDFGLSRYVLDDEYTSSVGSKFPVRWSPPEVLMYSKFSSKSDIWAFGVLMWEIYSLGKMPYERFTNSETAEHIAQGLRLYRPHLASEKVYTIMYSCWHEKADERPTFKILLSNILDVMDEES
0.1 to 1 µM

Consider the compound COc1cc(NC(=O)/C=C/CN(C)C2CC2)cc(-n2c(=O)n(-c3ccc(Oc4ccccc4)cc3)c3c(N)ncnc32)c1 tested on BTK (Homo sapiens, UniProt Q06187); state its IC50.
< 0.1 µM

Provide BTK (Homo sapiens, UniProt Q06187) IC50 reading for CN(C/C=C/C(=O)Nc1cccc(-n2c(=O)n(-c3ccc(Oc4ccccc4)cc3)c3c(N)ncnc32)c1)C1CC1 .
< 0.1 µM

Answer with IC50 of CN(C/C=C/C(=O)N1CC[C@@H](n2c(=O)n(-c3ccc(Oc4ccccc4)cc3)c3c(N)ncnc32)C1)C1CCC1 measured for BTK (Homo sapiens, UniProt Q06187).
< 0.1 µM

Look up and report measured IC50 (BTK (Homo sapiens, UniProt Q06187)) for the following compound: CNC/C=C/C(=O)Nc1cccc(-n2c(=O)n(-c3ccc(Oc4ccccc4)cc3)c3c(N)ncnc32)c1
< 0.1 µM

Give IC50; test system BTK (Homo sapiens, UniProt Q06187); compound COCCOc1cc(N(C)C(=O)/C=C/CN(C)C)cc(-n2c(=O)n(-c3ccc(C)c(OC)c3)c3c(N)ncnc32)c1
< 0.1 µM

Print BTK (Homo sapiens, UniProt Q06187) IC50 for CN(C(=O)/C=C/c1ccccn1)c1cccc(-n2c(=O)n(-c3ccc(Oc4ccccc4)cc3)c3c(N)ncnc32)c1 .
0.1 to 1 µM

Report value only: IC50, BTK (Homo sapiens, UniProt Q06187), CN(C)C/C=C/C(=O)Nc1cccc(-n2c(=O)n(-c3ccc(Oc4ccccc4)cc3)c3c(N)ncnc32)c1
< 0.1 µM

Would you please give the reported IC50 of CN(C)C/C=C/C(=O)N1CC[C@@H](n2c(=O)n(-c3ccc(Cl)cc3)c3c(N)ncnc32)C1 with BTK (Homo sapiens, UniProt Q06187)?
0.1 to 1 µM

Supply IC50 measured with BTK (Homo sapiens, UniProt Q06187) for Cc1cccc(COc2ccc(-n3c(=O)n(-c4cccc(N(C)C(=O)/C=C/CN(C)C5CC5)c4)c4ncnc(N)c43)cc2)c1 .
< 0.1 µM

For BTK (Homo sapiens, UniProt Q06187), give IC50 of the listed compound: CN(C)C/C=C/C(=O)N(C)[C@H]1CC[C@@H](n2c(=O)n(-c3ccc(Oc4ccccc4)cc3)c3c(N)ncnc32)CC1
< 0.1 µM

GET IC50 | system: BTK (Homo sapiens, UniProt Q06187) | item: CN(C)C/C=C/C(=O)N(C)c1cccc(-n2c(=O)n(-c3ccc(Cl)cc3)c3c(N)ncnc32)c1
< 0.1 µM

Report IC50 on BTK (Homo sapiens, UniProt Q06187) for this entry: CN(C/C=C/C(=O)N1CC[C@@H](n2c(=O)n(-c3ccc(Oc4ccccc4)cc3)c3c(N)ncnc32)C1)C1CC1
< 0.1 µM

# lookup: BTK (Homo sapiens, UniProt Q06187) IC50, key = COc1ccc(N(C)C(=O)/C=C/CN(C)C2CC2)cc1-n1c(=O)n(-c2ccc(Oc3ccccc3)cc2)c2c(N)ncnc21
0.1 to 1 µM

Give BTK (Homo sapiens, UniProt Q06187) IC50 for the following compound: CN(C(=O)/C=C/CN(C)[C@@H]1CCOC1)c1cccc(-n2c(=O)n(-c3ccc(Oc4ccccc4)cc3)c3c(N)ncnc32)c1
< 0.1 µM

Give IC50; test system BTK (Homo sapiens, UniProt Q06187); compound C=CC(=O)N1CC[C@@H](n2c(=O)n(-c3ccc(Cl)cc3)c3c(N)ncnc32)C1
< 0.1 µM

Lab note: record IC50 of N#C/C(=C\C1CC1)C(=O)N1CCC[C@@H](n2c(=O)n(-c3ccc(Oc4ccccc4)cc3)c3c(N)ncnc32)C1 tested on BTK (Homo sapiens, UniProt Q06187).
< 0.1 µM

Look up and report measured IC50 (BTK (Homo sapiens, UniProt Q06187)) for the following compound: COCCOc1ccc(-n2c(=O)n(-c3ccc(C)c(OC)c3)c3c(N)ncnc32)cc1NC(=O)/C=C/CN(C)C
< 0.1 µM

Please report the measured IC50 for COCCN(C)C/C=C/C(=O)Nc1cccc(-n2c(=O)n(-c3ccc(Oc4ccccc4)cc3)c3c(N)ncnc32)c1 tested on BTK (Homo sapiens, UniProt Q06187).
< 0.1 µM

Answer briefly: IC50 recorded on BTK (Homo sapiens, UniProt Q06187) for CN(C(=O)/C=C/CN(C)C1CC1)c1cccc(-n2c(=O)n(-c3ccc(C(=O)Nc4ccccc4)cc3)c3c(N)ncnc32)c1
0.1 to 1 µM

Give IC50 only, for C=CC(=O)N(C)c1cccc(-n2c(=O)n(-c3ccc(Cl)cc3)c3c(N)ncnc32)c1 , using BTK (Homo sapiens, UniProt Q06187) data.
< 0.1 µM

Name the recorded IC50 of C=CC(=O)N1CCC[C@@H](n2c(=O)n(-c3ccc(Cl)cc3)c3c(N)ncnc32)C1 , assay system BTK (Homo sapiens, UniProt Q06187).
< 0.1 µM

GET IC50 | system: BTK (Homo sapiens, UniProt Q06187) | item: CN(C(=O)/C=C/CN(C)C1CCC1)c1ccc(-n2c(=O)n(-c3ccc(Cl)cc3)c3c(N)ncnc32)cc1
0.1 to 1 µM

Return reported IC50 for target or system BTK (Homo sapiens, UniProt Q06187), item COc1ccc(-n2c(=O)n(-c3ccc(Oc4ccccc4)cc3)c3c(N)ncnc32)cc1N(C)C(=O)/C=C/CN(C)[C@H]1CCOC1 .
< 0.1 µM

====

Can you tell me pIC50 for the items I'm about to list?
# assayed-target: UniProt P00533
# Sequence (P00533 25-1210, species assumed): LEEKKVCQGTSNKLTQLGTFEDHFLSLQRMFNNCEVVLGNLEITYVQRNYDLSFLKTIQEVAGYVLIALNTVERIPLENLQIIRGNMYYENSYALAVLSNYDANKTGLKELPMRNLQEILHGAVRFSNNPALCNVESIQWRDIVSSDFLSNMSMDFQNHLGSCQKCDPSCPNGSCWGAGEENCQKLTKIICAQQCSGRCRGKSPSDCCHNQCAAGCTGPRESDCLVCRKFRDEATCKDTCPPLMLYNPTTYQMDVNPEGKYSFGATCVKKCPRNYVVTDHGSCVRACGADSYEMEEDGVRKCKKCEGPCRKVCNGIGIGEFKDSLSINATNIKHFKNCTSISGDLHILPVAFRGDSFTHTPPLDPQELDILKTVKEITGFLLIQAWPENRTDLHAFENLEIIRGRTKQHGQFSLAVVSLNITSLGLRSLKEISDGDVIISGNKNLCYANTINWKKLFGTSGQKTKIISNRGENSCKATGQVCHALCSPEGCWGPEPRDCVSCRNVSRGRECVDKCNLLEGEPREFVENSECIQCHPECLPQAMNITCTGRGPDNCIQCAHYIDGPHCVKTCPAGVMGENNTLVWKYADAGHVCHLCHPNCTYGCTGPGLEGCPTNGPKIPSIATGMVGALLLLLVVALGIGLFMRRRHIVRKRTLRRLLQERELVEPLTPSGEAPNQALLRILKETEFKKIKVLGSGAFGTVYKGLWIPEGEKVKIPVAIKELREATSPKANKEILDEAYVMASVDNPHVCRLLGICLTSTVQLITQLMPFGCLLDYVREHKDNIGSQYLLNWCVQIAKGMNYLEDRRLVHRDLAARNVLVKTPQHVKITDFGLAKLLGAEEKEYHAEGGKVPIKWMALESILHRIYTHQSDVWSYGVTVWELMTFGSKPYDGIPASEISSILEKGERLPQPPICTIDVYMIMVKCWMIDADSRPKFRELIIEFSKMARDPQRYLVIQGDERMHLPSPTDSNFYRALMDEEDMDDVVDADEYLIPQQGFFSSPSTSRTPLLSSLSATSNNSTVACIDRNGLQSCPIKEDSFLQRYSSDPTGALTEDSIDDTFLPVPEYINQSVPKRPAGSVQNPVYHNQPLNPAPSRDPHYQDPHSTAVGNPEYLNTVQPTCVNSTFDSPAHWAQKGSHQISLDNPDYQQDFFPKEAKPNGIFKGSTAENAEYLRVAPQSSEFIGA
pIC50: −log10 of the molar value. Structures can show the parent of a compound that is named as a salt.

Under UniProt P00533: report pIC50 of CN(C(=O)/C=C/CN(C)C1CCC1)c1ccc(-n2c(=O)n(-c3ccc(Oc4ccccc4)cc3)c3c(N)ncnc32)cc1 [Compound 45] .
5.00 to 6.00

Check UniProt P00533 data and give pIC50 for CNC/C=C/C(=O)N(C)c1cccc(-n2c(=O)n(-c3ccc(Oc4ccccc4)cc3)c3c(N)ncnc32)c1 [Compound 229, hydrochloride] .
> 7.00

With UniProt P00533 as the test system, provide measured pIC50 for this molecule: C=CC(=O)N(C)c1ccc(-n2c(=O)n(-c3ccc(C)c(OC)c3)c3c(N)ncnc32)cc1 [Compound 55]
5.00 to 6.00

GET pIC50 where system = UniProt P00533 and item = CN(C(=O)/C=C/CN(C)C1CC1)c1cccc(-n2c(=O)n(-c3ccc(Oc4ccccc4)cc3)c3c(N)ncnc32)c1 [Compound 34]
6.00 to 7.00

Report the value of pIC50 obtained on UniProt P00533 for CN(C/C=C/C(=O)Nc1cccc(-n2c(=O)n(-c3ccc(Oc4ccccc4)cc3)c3c(N)ncnc32)c1)[C@H]1CCOC1 [Compound 317] .
6.00 to 7.00

Please look at CN(C(=O)/C=C/CNC1CC1)c1cccc(-n2c(=O)n(-c3ccc(Oc4ccccc4)cc3)c3c(N)ncnc32)c1 [Compound 118] and tell me its recorded pIC50 on UniProt P00533.
6.00 to 7.00

Quote UniProt P00533 pIC50 for entry Cc1ccc(-n2c(=O)n(-c3ccc(Oc4ccccc4)cc3)c3c(N)ncnc32)cc1N(C)C(=O)/C=C/CN(C)C1CC1 [Compound 201] .
5.00 to 6.00

Name the recorded pIC50 of COc1ccc(-n2c(=O)n(-c3ccc(Oc4cccc(F)c4)cc3)c3c(N)ncnc32)cc1N(C)C(=O)/C=C/CN(C)C1CC1 [Compound 312] , assay system UniProt P00533.
< 5.00

State, for UniProt P00533, measured pIC50 of the molecule listed here: Cc1ccc(N(C)C(=O)/C=C/CN(C)C2CC2)cc1-n1c(=O)n(-c2ccc(Oc3ccccc3)cc2)c2c(N)ncnc21 [Compound 191]
< 5.00

Fill in pIC50 for CN(C/C=C/C(=O)Nc1cccc(-n2c(=O)n(-c3ccc(Oc4ccccc4)cc3)c3c(N)ncnc32)c1)C1CC1 [Compound 9] tested with UniProt P00533.
> 7.00

Name the recorded pIC50 of Cc1cc(NC(=O)/C=C/CN(C)C2CC2)cc(-n2c(=O)n(-c3ccc(Oc4ccccc4)cc3)c3c(N)ncnc32)c1 [Compound 255] , assay system UniProt P00533.
6.00 to 7.00

Provide pIC50, recorded with UniProt P00533, of CN(C(=O)/C(C#N)=C/C1CC1)c1cccc(-n2c(=O)n(-c3ccc(Oc4ccccc4)cc3)c3c(N)ncnc32)c1 [Compound 325]
6.00 to 7.00

Name the value of pIC50 reported for Cc1cc(N(C)C(=O)/C=C/CN(C)C2CC2)cc(-n2c(=O)n(-c3ccc(Oc4ccccc4)cc3)c3c(N)ncnc32)c1 [Compound 211] when tested on UniProt P00533.
6.00 to 7.00

Provide measured pIC50 on UniProt P00533 for COc1cc(-n2c(=O)n(-c3cccc(N(C)C(=O)/C=C/CN(C)C4CC4)c3)c3ncnc(N)c32)ccc1OCc1ccccc1 [Compound 295] please.
< 5.00

Quote pIC50 with test system UniProt P00533 for CN(C(=O)/C=C/CN(C)C1CC1)c1ccc(-n2c(=O)n(-c3ccc(Oc4ccccc4)cc3)c3c(N)ncnc32)cc1 [Compound 44]
5.00 to 6.00

Under UniProt P00533: report pIC50 of CN(C(=O)/C=C/CN(C)[C@H]1CCOC1)c1cccc(-n2c(=O)n(-c3ccc(Oc4cccc(F)c4)cc3)c3c(N)ncnc32)c1 [Compound 309] .
5.00 to 6.00

Please report pIC50 with UniProt P00533 for item CN(C(=O)/C=C/CN(C)C1CCC1)c1ccc(-n2c(=O)n(-c3ccc(Cl)cc3)c3c(N)ncnc32)cc1 [Compound 50] .
< 5.00

Provide pIC50, tested on UniProt P00533, for COCCOc1cc(N(C)C(=O)/C=C/CN(C)C)cc(-n2c(=O)n(-c3ccc(C)c(OC)c3)c3c(N)ncnc32)c1 [Compound 147] .
< 5.00

Look up and report measured pIC50 (UniProt P00533) for the following molecule: CN(C/C=C/C(=O)N1CC[C@@H](n2c(=O)n(-c3ccc(Oc4ccccc4)cc3)c3c(N)ncnc32)C1)C1CCC1 [Compound 64]
5.00 to 6.00

Report pIC50 on UniProt P00533 for this entry: CN(C)C/C=C/C(=O)N(C)c1ccc(-n2c(=O)n(-c3ccc(Cl)cc3)c3c(N)ncnc32)cc1 [Compound 48]
< 5.00
